Hey, just so you know, these numbers are from PubChem BioAssay (NCI).

# Tested on: BT-549 breast
# PROCEDURE_DETAILS: NCI-60 one-dose screen, 48 h (100 = growth as untreated, 0 = no growth, -100 = all killed)
# CONDITION_PARAMETERS: 10 µM unless noted
Compounds without any hit were thinned out: in the full panel of roughly 83,000, 20% have a hit. The source made the active and inactive calls. How the source made its calls: active means growth percent below 10; inactive means the rest.
QUANTITY_KIND: growth

COMPOUND | EXPERIMENTAL_TARGET | RESULT
O=S(=O)(Nc1ccc(-n2cnc3cc(-c4ccc(O)cc4)ccc32)cc1)c1ccccc1 | BT-549 breast | 94.3% (inactive)
CC(Sc1nc2ccccc2c(=O)n1CCc1ccc(S(N)(=O)=O)cc1)C(=O)Nc1ccc(Cl)cc1 (centres undefined) | BT-549 breast | 102% (inactive)
COc1ccc(/C=C(\C#N)n2nc3cccc(F)c3n2)cc1 | BT-549 breast | 109% (inactive)
Cc1nn(-c2ccccc2)c(Cl)c1/C=C/C(=O)c1ccc(F)cc1 | BT-549 breast | 92.9% (inactive)

Short answer for `CC(=O)c1ccc(NS(=O)(=O)c2cccc(C(=O)Nc3ccc(Br)cc3)c2)cc1` : growth was 48.3% [25 µM] (inactive)

Short answer for `CNC(=O)c1cccc(Cn2nc(C)c(NC(=O)c3ccc(COc4ccc(C(F)(F)F)cc4C)cc3)c2C)c1` : growth was 19.7% (inactive)

Short answer for `O=C(/C=C/c1c(-c2ccc(Cl)cc2)nn(-c2ccccc2)c1C(F)(F)F)c1ccc(Cl)cc1` : growth was 97.4% (inactive)

Short answer for `Fc1ccc(-c2cn3c(nc4ccccc43)c(-c3ccccc3)n2)cc1` : growth was 105% (inactive)

Short answer for CC(=O)N1N=C(c2ccc(-n3ccc(C(F)(F)F)n3)c(F)c2)CC1c1ccc[nH]1 (centres undefined) : growth was 111% (inactive)
